target: T1, PSMA Fab (006 PSMA Fab); assay: clonal phage ELISA; biotinylated PSMA Fab on neutravidin plate pre-incubated with PSMA antigen as competitor; anti-M13 HRP detection;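 further: crude clonal phage supernatants briefly incubated on wells preloaded with PSMA antigen in blocking buffer, or buffer only as control, bound phage detected with HRP-conjugated anti-M13 antibody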
T1 construct: also called Anti-PSMA Fab; anti-PSMA Fab
Where no end group is shown, it is not given here.
Consider the following binders and their measured Phage binding ELISA signal, Anti-PSMA Fab in presence of PSMA readings.
Lab note: record just the number, no unit beside it.

Worked examples, 5 binders total:
BINDER | MEASURED_VALUE
HQLMCRPAWMCEGF (cysteine pairing not given here; also: fused to phage pIII, orientation and linker not given here) [Phage-3135] | 0.118
VVQICKPSWMCEGF (cysteine pairing not given here; also: fused to phage pIII, orientation and linker not given here) [Phage-3136] | 0.102
SVGYCVPSWMCSGF (cysteine pairing not given here; also: fused to phage pIII, orientation and linker not given here) [Phage-3130] | 0.075
YERVCEPLWMCTGF (cysteine pairing not given here; also: fused to phage pIII, orientation and linker not given here) [Phage-3141] | 0.0802
YERSCVPSWMCEGF (cysteine pairing not given here; also: fused to phage pIII, orientation and linker not given here) [Phage-3133] | 0.066

Which Phage binding ELISA signal, Anti-PSMA Fab in presence of PSMA is listed for AGVYCTPMWMCTGF (cysteine pairing not given here; also: fused to phage pIII, orientation and linker not given here) [Phage-3142] ? 0.0775

Which Phage binding ELISA signal, Anti-PSMA Fab in presence of PSMA is listed for GHQMCVPQWMCDAF (cysteine pairing not given here; also: fused to phage pIII, orientation and linker not given here) [Phage-3129] ? 0.0607

Which Phage binding ELISA signal, Anti-PSMA Fab in presence of PSMA is listed for TAPVCVPWWMCEGF (cysteine pairing not given here; also: fused to phage pIII, orientation and linker not given here) [Phage-3139] ? 0.0757

Ref: patent US20260242478A1
